# Assay name: protein stability index of a GFP-peptide fusion (yeast GPS) (PSI 1-4); higher = more stable; sorted into four equal gates, so the index is relative within each strain
# Condition details: pdr5∆
Value kind: protein stability index
Please give the numeric answer without any surrounding text.

Which protein stability index value is on record for IPSQRGTSTTHGSISPQ [SIR3] ?
2.58

---
Which protein stability index value is on record for AISKKNKSLKYVIHGIE [LIN1] ?
1.84

Which protein stability index value is on record for DYNKKQDRIQDVKLVLA [MED1] ?
2.83

Which protein stability index value is on record for AENSHTQPKATSTGTTI [PUP1] ?
3.1

Which protein stability index value is on record for ENGTHNDEVNEDEEDDN [YCG1] ?
3.23

Which protein stability index value is on record for KALRRKIYINLALGSHN [SSN2] ?
2.76

Which protein stability index value is on record for TSMTGDANLLEEGETSR [SWI3] ?
3.35

Which protein stability index value is on record for YSNSHQMAVHIATDGGR [RET1] ?
2.95

====

# Assay name: protein stability index of a GFP-peptide fusion (yeast GPS) (PSI 1-4); higher = more stable; sorted into four equal gates, so the index is relative within each strain
# Condition details: doa10∆
Output class 1 for protein stability index not less than 3; output class 0 otherwise.

Illustrative cases are given below, each with its answer.
Kindly determine if protein stability index recorded for HIKFSAGTEANAVSFDT [SRB4] is above or exactly 3.
class 0

Kindly determine if protein stability index recorded for PGPYPNEQAARAANQGA [CYT1] is above or exactly 3.
class 0

Kindly determine if protein stability index recorded for KEECQIEDDGIIESHLI [CSN9] is above or exactly 3.
class 1

Kindly determine if protein stability index recorded for AYFLIIVPVISTIENVL [COB] is above or exactly 3.
class 0

Kindly determine if protein stability index recorded for SQIIPLMKKACYVGLLT [SNU114] is above or exactly 3.
class 0

---
Kindly determine if protein stability index recorded for IIANINSFTKGNVFSPI [SNU114] is above or exactly 3.
class 0

Kindly determine if protein stability index recorded for MLSILEIFKKGYIKNNK [POP6] is above or exactly 3.
class 0

Kindly determine if protein stability index recorded for EQTVEYMVSRAIRDGVI [RPN3] is above or exactly 3.
class 1

Kindly determine if protein stability index recorded for LRLFNAPDSEYLCFILS [SNF2] is above or exactly 3.
class 0

Kindly determine if protein stability index recorded for PSPPNVIITDGTLLRED [YDL088C/ASM4] is above or exactly 3.
class 0

Kindly determine if protein stability index recorded for KILSILNRSHFATTKAE [ECM29] is above or exactly 3.
class 0

Kindly determine if protein stability index recorded for EMDSVSKSMKFSRRFDC [CSN9] is above or exactly 3.
class 0

Kindly determine if protein stability index recorded for VRGGNIEIMGILMGFTL [RRI1] is above or exactly 3.
class 0

Kindly determine if protein stability index recorded for EYYRIQKQLPQKTRVKL [ESC2] is above or exactly 3.
class 0

Kindly determine if protein stability index recorded for NSNSNSGSLFGSNNAQT [YGL172W/NUP49] is above or exactly 3.
class 0

Kindly determine if protein stability index recorded for DQYIQKQVQISHHLKAD [YGL172W/NUP49] is above or exactly 3.
class 0
